Target: GS-9005 hydrolase A (Homo sapiens, UniProt P42785)
Construct: Varying amounts of purified GS-9005 hydrolase A and control enzymes; from tissue; host or cells: human peripheral blood mononuclear cells (PBMC), purified by Q15 flow-through, SP-Sepharose, Butyl Sepharose HIC and lentil lectin chromatography
Sequence (P42785 46-496): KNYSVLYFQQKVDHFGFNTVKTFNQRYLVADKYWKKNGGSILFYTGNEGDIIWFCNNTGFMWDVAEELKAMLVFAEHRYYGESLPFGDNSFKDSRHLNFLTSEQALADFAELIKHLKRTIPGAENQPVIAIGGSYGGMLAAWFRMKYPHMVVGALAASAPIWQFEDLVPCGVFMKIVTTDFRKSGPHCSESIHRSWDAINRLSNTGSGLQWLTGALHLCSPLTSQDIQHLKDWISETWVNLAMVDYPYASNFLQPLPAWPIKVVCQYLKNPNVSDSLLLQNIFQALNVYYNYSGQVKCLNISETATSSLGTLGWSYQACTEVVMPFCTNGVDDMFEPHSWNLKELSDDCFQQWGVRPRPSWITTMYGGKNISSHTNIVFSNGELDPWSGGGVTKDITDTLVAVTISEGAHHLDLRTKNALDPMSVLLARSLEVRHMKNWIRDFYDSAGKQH
Format: biochemical
Conditions: pH 6.5; read-out: IC50 (inhibition profile, 9005 Hydrolase A)
Peptide text beside a SMILES is read from it. * marks the point of attachment. Cbz = O=C(OCc1ccccc1)*
In this section, each of the compounds is paired with its reported pIC50.
Would you please state pIC50, meaning minus log10 of the concentration in mol/L, as a bare number?

O=S(=O)(F)Cc1ccccc1 [PMSF]
3.70

Incoming: What measured pIC50 goes with O=C[C@@H]1CCCN1C(=O)[C@@H]1CCCN1C(=O)OCc1ccccc1 [Cbz-pro-pro-COH, Carboxybenzoyl-Pro-Pro-COH] (Cbz-Pro-Pro-aldehyde) ?
Outgoing: 6.00
